- target system: T1, human IL-2 (recombinant IL-2, Humanzyme) (human, UniProt P60568 21-153)
- T1 construct: It may include the signal peptide; also called hIL-2; interleukin-2
- T1 sequence (P60568 21-153 limits assumed): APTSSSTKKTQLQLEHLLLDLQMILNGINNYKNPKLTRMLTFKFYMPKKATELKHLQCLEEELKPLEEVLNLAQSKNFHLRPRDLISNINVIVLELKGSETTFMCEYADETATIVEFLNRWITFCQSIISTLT
- procedure summary: SPR (Biacore T200), IgG captured by anti-human IgG, IL-2 injected, 25 C, 1:1 Langmuir fit
measured endpoint: kon (M⁻¹ s⁻¹)

binder | measured endpoint | readout number
F4.7.6 (antibody, V domains shown) VH: EVQLQESGPGLVKPSQTLSLTCTVSGGSISSGGYYWSWIRQHPGKGLEWIGYIYYSGSTYYNPSLKSRVTISVDTSKNQFSLKLSSVTAADTAVYYCARTPTVTGDWFDPWGQGTLVTVSS VL: NFMLTQPHSVSESPGKTVTISCTRSSGSIASNYVQWYQQRPGSSPTTVIYEDNQRPSGVPDRFSGSIDSSSNSASLTISGLKTEDEADYYCQSYDSSTVVFGGGTKLTVL | kon | 2.44e+06
d1C7 (antibody, V domains shown, Only the variable domains are tied to the clone; also called clone d1C7) VH: QVQLVQSGAEVKKPGSSVKVSCKASGGTFSSYAISWVRQAPGQGLEWMGGIIPIFGTANYAQKFQGRVTITADESTSTAYMELSSLRSEDTAVYYCARVDRYYNWNYFLGSFDYWGQGTLVTVSS VL: SYVLTQPPSVSVAPGKTARITCGGNNIRSKSVHWYQQKPGQAPVVVIYYDSDRPSGIPERISGSNSGNTATLTISRVEAGDEADYFCQVWDSSSDHHVFGGGTKLTVL | kon | 1.13e+06
F4.7.062 (antibody, V domains shown) VH: QVQLQESGPGLVKPSQTLSLTCTVSGGSISSGGYYWSWIRQHPGKGLEWIGYIYYSGSTYYNPSLKSRVTISVDTSKNQFSLKLSSVTAADTAVYYCARTPTVTGDWFDPWGQGTLVTVSS VL: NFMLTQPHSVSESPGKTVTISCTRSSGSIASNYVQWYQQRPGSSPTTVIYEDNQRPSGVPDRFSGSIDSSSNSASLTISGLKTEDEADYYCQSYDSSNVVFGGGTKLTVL | kon | 3.77e+06
